test: endothelial E-selectin expression blockers – imaging, HUVEC, immunofluorescence, MLSMR starter and 10KST1 sets, primary screen (AID 487); conditions: HUVEC TNFalpha-induced E-selectin immunofluorescence imaging, at 2 µM; active compounds read high;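 also: signal is fraction of cell area covered by stained E-selectin grains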
Please mark t if the recorded inhibition is equal to or greater than -30%, and f if it falls below.

[[record]]
molecule = "Oc1cccc(Nc2nc(NCC3CCCO3)c3ccccc3n2)c1 (stereo not drawn)"
label_value = "f"

[[record]]
molecule = "CCOC(=O)c1cc(-c2ccccc2)sc1N"
label_value = "f"

[[record]]
molecule = "N#CCCN(Cc1cccnc1)C(=O)Nc1ccc(Cl)c(Cl)c1"
label_value = "t"

[[record]]
molecule = "O=C1c2ccccc2C(=O)N1c1cccc(-c2nc3ccccc3o2)c1"
label_value = "f"

[[record]]
molecule = "Cc1ccc(C)c2[nH]c(=O)c(CCNC(=O)c3ccc(S(=O)(=O)N(C)C)cc3)cc12"
label_value = "t"

[[record]]
molecule = "Cc1cccc(NC(=O)c2cnc3sccn3c2=O)n1"
label_value = "t"

[[record]]
molecule = "C=CCn1c(COc2cccc(C)c2)nnc1SCC(=O)NC(=O)NCc1ccco1"
label_value = "t"

[[record]]
molecule = "Cc1c(NS(=O)(=O)c2ccc3c(c2)c(=O)n(C)c(=O)n3C)c(=O)n(-c2ccccc2)n1C"
label_value = "t"

[[record]]
molecule = "c1ccc(CSCc2cn3ccsc3n2)cc1"
label_value = "f"

[[record]]
molecule = "O=C(CN1CCN(c2ccc(F)cc2)CC1)OCc1ccccc1"
label_value = "t"

[[record]]
molecule = "COc1ccccc1-c1nc(SCc2ccccn2)n[nH]1"
label_value = "t"

[[record]]
molecule = "CCCOc1ccc(C2C(C(=O)c3ccc(C)o3)=C(O)C(=O)N2Cc2cccnc2)cc1 (stereo not drawn)"
label_value = "t"

[[record]]
molecule = "Cc1nc(NC(=O)C2CC3CCCC(C2)C3=O)sc1C (stereo not drawn)"
label_value = "f"

[[record]]
molecule = "O=C(CNS(=O)(=O)c1ccccc1)NCc1ccccn1"
label_value = "t"

[[record]]
molecule = "Cc1nnc(SCCn2c(N3CCC(Cc4ccccc4)CC3)nc3c2c(=O)[nH]c(=O)n3C)s1"
label_value = "t"

[[record]]
molecule = "CSc1nnc(-c2ccccc2)n1C"
label_value = "t"

[[record]]
molecule = "O=C(CSc1nc(O)cc(=O)n1-c1ccccc1)N1CCCCC1"
label_value = "f"

[[record]]
molecule = "CC(=O)Nc1ccccc1-c1nc2ccc(C(=O)N3CCN(c4ccccc4)CC3)cc2[nH]c1=O"
label_value = "t"

[[record]]
molecule = "Cc1cc(NC(=O)C2CCCC2)nc2c1c(=O)oc1ccccc12"
label_value = "t"

[[record]]
molecule = "Cc1ccc(OC(=O)CCC(=O)OCCCC(F)(F)C(F)(F)F)cc1"
label_value = "t"

[[record]]
molecule = "COC(=O)c1c(N)n(-c2cc(OC)cc(OC)c2)c2nc3ccccc3nc12"
label_value = "t"

[[record]]
molecule = "CN(C)S(=O)(=O)c1ccc(S(=O)(=O)N(Cc2ccco2)Cc2ccccc2Cl)cc1"
label_value = "f"

[[record]]
molecule = "CCOC(=O)C1CCN(S(=O)(=O)c2cc(Cl)c(C)cc2OC)CC1"
label_value = "f"


----------
Quick list: inhibition per entry.
assay: inhibitors of TNFa-induced NFkB p65 translocation, primary screen, imaging, HUVEC, MLSMR starter and 10KST1 sets (AID 438); conditions: HUVEC TNFa-induced p65 nuclear translocation; at 2 µM, active compounds read high, 0% TNFa-plus-vehicle, 100% no-TNFa wells;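 also: compound added about 3h40 before a 20 min TNFalpha stimulation; signal is the nuclear over cytoplasmic p65 intensity ratio per well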
RECORDED_ENDPOINT: inhibition (%)

[[record]]
molecule = "CCOC(=O)NC(=O)CSc1nnc(C)s1"
result_units = "%"
data_value = 4.3

[[record]]
molecule = "O=C(O)C1CC(=O)N(Cc2ccccc2)C1 (stereo not drawn)"
result_units = "%"
data_value = -1.8

[[record]]
molecule = "Cc1ccc(-n2c(SCC3CCCCO3)nnc2-c2ccco2)cc1 (stereo not drawn)"
result_units = "%"
data_value = 0.5

[[record]]
molecule = "CSc1nc2c(ccc3ccccc32)o1"
result_units = "%"
data_value = 4.2

[[record]]
molecule = "Cc1cccc(C(=O)N(C)c2nnc(-c3ccncc3)s2)c1"
result_units = "%"
data_value = -10.7

[[record]]
molecule = "Cc1ccc2c(c1)NC(=O)C(CC(=O)NCCCN1CCN(c3cc(Cl)ccc3C)CC1)O2 (stereo not drawn)"
result_units = "%"
data_value = 4.1

[[record]]
molecule = "CC(=O)c1c(C)[nH]c(C(=O)Nc2ccc3c(c2)OCCO3)c1C"
result_units = "%"
data_value = -3.5

[[record]]
molecule = "CN(C)S(=O)(=O)N1CCN(c2cccc(Cl)c2)CC1"
result_units = "%"
data_value = -0.2

[[record]]
molecule = "Oc1ccc(Nc2nc(-c3ccc(O)cc3)cs2)cc1"
result_units = "%"
data_value = 15.1

[[record]]
molecule = "Cc1ccc2cc(C(c3nnnn3C3CCCC3)N3CCN(c4ccc(F)cc4)CC3)c(=O)[nH]c2c1 (stereo not drawn)"
result_units = "%"
data_value = 7.2

[[record]]
molecule = "CC(=O)Nc1ccc(S(=O)(=O)N(CC(=O)O)Cc2ccccc2)cc1"
result_units = "%"
data_value = 6

[[record]]
molecule = "COc1ccc(CN(C(=O)CN2C(=O)COc3ccccc32)C2CCCC2)c(OC)c1"
result_units = "%"
data_value = -3.5

[[record]]
molecule = "CC1=C(C(=O)OCCOC(C)C)C(c2cc3c(cc2Br)OCO3)C2=C(CCCC2=O)N1 (stereo not drawn)"
result_units = "%"
data_value = 0.2

[[record]]
molecule = "O=C(NCc1cccs1)C(Cc1ccccc1)NS(=O)(=O)c1cccs1 (stereo not drawn)"
result_units = "%"
data_value = -1.7

[[record]]
molecule = "CC(C)(C)C1CCc2c(sc3c2C(=O)NC(c2ccco2)N3)C1 (stereo not drawn)"
result_units = "%"
data_value = -34.8

[[record]]
molecule = "CCOc1ccc(Cl)cc1S(=O)(=O)N1CCCC1"
result_units = "%"
data_value = 1.4

[[record]]
molecule = "CCOc1ccccc1N1C(=O)c2ccc(C(=O)Nc3cccnc3)cc2C1=O"
result_units = "%"
data_value = 0.8

[[record]]
molecule = "CCOC(=O)C1C(=O)NC(SCC(=O)Nc2nccs2)=C(C#N)C1c1ccccc1OCC (stereo not drawn)"
result_units = "%"
data_value = -27.7

[[record]]
molecule = "O=C(O)COc1ccc(Oc2ccccc2)cc1"
result_units = "%"
data_value = 0.5

[[record]]
molecule = "COC(=O)c1cnn2c(C(F)(F)F)cc(-c3ccco3)nc12"
result_units = "%"
data_value = 0.2

[[record]]
molecule = "CC(=O)N1C(=O)C2(C(C#N)=C(N)Oc3cc(C)oc(=O)c32)c2ccccc21 (stereo not drawn)"
result_units = "%"
data_value = 3.8

[[record]]
molecule = "Cc1cc2ncn(C(=O)N3CCOCC3)c2cc1C"
result_units = "%"
data_value = -2.5

[[record]]
molecule = "COc1cc(NC(=O)c2nccnc2C(=O)O)cc(OC)c1"
result_units = "%"
data_value = 1.2

